Cited source for all entries: patent US20100267672A1

- measured.on: hERG (Homo sapiens)
- Sequence (Q12809 whole entry): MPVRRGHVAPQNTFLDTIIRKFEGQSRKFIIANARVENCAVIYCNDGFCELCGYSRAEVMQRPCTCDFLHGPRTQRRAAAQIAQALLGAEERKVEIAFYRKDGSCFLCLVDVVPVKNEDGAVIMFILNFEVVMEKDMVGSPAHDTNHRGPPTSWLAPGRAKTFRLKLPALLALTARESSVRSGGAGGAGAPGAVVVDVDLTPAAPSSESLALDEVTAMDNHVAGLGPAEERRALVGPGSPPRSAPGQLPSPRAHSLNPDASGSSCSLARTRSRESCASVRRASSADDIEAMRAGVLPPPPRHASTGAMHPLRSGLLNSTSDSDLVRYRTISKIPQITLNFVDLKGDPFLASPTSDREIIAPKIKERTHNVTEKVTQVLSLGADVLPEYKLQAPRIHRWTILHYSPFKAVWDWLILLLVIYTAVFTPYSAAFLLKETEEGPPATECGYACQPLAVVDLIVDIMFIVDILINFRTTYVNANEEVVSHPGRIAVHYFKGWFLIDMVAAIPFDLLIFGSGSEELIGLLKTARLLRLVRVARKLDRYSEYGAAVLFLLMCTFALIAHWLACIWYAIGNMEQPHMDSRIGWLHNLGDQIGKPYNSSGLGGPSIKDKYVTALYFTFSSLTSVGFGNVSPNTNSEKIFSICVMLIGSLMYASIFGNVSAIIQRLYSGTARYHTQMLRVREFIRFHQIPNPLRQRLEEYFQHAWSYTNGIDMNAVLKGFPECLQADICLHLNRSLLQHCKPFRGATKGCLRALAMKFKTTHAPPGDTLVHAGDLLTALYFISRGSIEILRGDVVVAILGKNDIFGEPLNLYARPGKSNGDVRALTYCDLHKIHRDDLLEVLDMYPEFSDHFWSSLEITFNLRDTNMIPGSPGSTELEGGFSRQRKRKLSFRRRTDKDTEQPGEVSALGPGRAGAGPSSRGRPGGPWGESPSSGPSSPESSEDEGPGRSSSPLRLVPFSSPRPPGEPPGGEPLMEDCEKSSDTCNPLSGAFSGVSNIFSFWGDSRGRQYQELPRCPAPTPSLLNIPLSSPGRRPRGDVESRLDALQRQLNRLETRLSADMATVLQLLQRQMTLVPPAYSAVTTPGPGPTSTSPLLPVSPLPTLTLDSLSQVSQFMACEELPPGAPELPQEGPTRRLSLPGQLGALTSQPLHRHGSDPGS
- assay.explanation: In vitro cardiotoxicity assay: inhibitory activity against hERG (whole-cell patch clamp)
- assay.conditions: hERG-transfected HEK293 cells, tail current of outward hERG K+ currents; read-out: Cardiotoxicity (hERG Inhibiting Activity Assay, IC50)
outcome.measure: pIC50
When answering, recall that pIC50 equals minus log10 of the concentration in mol/L, and write that number alone.

-- ask Which pIC50 is listed for C=CCN1CC(=O)N2[C@@H](Cc3ccc(OP(=O)(O)O)cc3)C(=O)N(Cc3cccc4c(C(=O)CC(C)(C)C)cn(CCCCCC)c34)C[C@@H]2N1C(=O)NCc1ccccc1 ?
-- reply 4.70

-- ask Which pIC50 is listed for C=CCN1CC(=O)N2[C@@H](Cc3ccc(OP(=O)(O)O)cc3)C(=O)N(Cc3cccc4c(C(=O)CC)cn(C)c34)C[C@@H]2N1C(=O)NCc1ccccc1 ?
-- reply 4.10

-- ask Which pIC50 is listed for C=CCN1CC(=O)N2[C@@H](Cc3ccc(OP(=O)(O)O)cc3)C(=O)N(Cc3cccc4c(C(=O)CC(C)(C)C)cn(C)c34)C[C@@H]2N1C(=O)NCc1ccccc1 ?
-- reply 4.60

-- ask Which pIC50 is listed for C=CCN1CC(=O)N2[C@@H](Cc3ccc(OP(=O)(O)O)cc3)C(=O)N(Cc3cccc4c(C(=O)CC(C)(C)C)c[nH]c34)C[C@@H]2N1C(=O)NCc1ccccc1 ?
-- reply 5.80

-- ask Which pIC50 is listed for C=CCN1CC(=O)N2[C@@H](Cc3ccc(OP(=O)(O)O)cc3)C(=O)N(Cc3cccc4c(C(C)=O)c[nH]c34)C[C@@H]2N1C(=O)NCc1ccccc1 ?
-- reply 4.85

-- ask Which pIC50 is listed for C=CCN1CC(=O)N2[C@@H](Cc3ccc(OP(=O)(O)O)cc3)C(=O)N(Cc3cccc4c(C(=O)CC(C)(C)C)cn(CCC)c34)C[C@@H]2N1C(=O)NCc1ccccc1 ?
-- reply 4.74
